Origin of the recorded values: patent US8147838B2

Molecular target: MHC class I allele A*0201 (A2) (Homo sapiens, UniProt P04439, D140Y/D185E/D98H/E176V/E277Q/G131W/G231S/I119V/I121R/I166T/I218V/L300P/L318F/N151K/N90K/P208A/P217A/Q86G/Q94H/R138H/R169H/T345S)
Assay: iScore multi-parametric analysis, A*0201
Assay type: binding
Settings: level of binding: >0.5, 0.25-0.5, <0.25
No end group written: not given here.
Please go through the items and note down their iScore, MHC Class I Molecule A*0201.
Numbers only.

Worked cases, iScore, MHC Class I Molecule A*0201 given:
chain="RGPAAGDGR [Peptide 4]" measurement_kind="iScore, MHC Class I Molecule A*0201" number=0.032
chain="LALVLLGWV [Peptide 11]" measurement_kind="iScore, MHC Class I Molecule A*0201" number=0.237

Here's the next entry for you.
Req: Tell us which iScore, MHC Class I Molecule A*0201 value is on record for LAVLPAGAF [Peptide 52]
Resp: 0.074
